Target: SARS-CoV-2 Wuhan-Hu-1 RBD (SARS-CoV-2, Wuhan-Hu-1 (GenBank …, UniProt P0DTC2))
Assay: BLI
Conditions: both partners purified

[
  {
    "BINDER": "JR316 (antibody, V domains shown) VH: QVQLVQSGAEVKKPGSSVKVSCKASGGSFSTHGISWVRQAPGQGLEWMGGIIPISGRANYAQNFQGRVTITADESTKTAYMELSSLRSEDTAVYYCARDDRFCDTTKCYGLWFDPWGQGTLVTVSS VL: DIQMTQSPSSLSASVGDRVTITCRASQSISTYLNWYQQKPGKAPKVLIYAASTLQSGVPSRFSGSGSGTDFTLTISSLQPEDFATYYCQQTYSSPRAFGQGTKVEIK",
    "binding result": "binds"
  },
  {
    "BINDER": "JR171 (antibody, V domains shown) VH: QVQLVQSGAEVKKPGASVKVSCKASGYTFTSYYMHWVRQAPGQGLEWMGIINPSGGSTSYAQKFQGRVTMTRDTSTSTVYMELSSLRSEDTAVYYCARAYDSAPGFDYWGQGTLVTVSS VL: DIQLTQSPSFLSASVGDRVTITCRASQGISSYLAWYQQKPGKAPKLLIYAASTLQSGVPSRFSGSGSGTEFTLTISSLQPEDFATYYCQQLNSYPSITFGQGTRLEIK",
    "binding result": "binds"
  },
  {
    "BINDER": "JR189 (antibody, V domains shown) VH: EVQLVESGGGLIQPGGSLRLSCAASGFNVNSNYINWVRQAPGKGLEWVSVIYSSGKTYFADSVKGRFTISRDNSKNTLYLQMNILRAEDTAVYYCATTTTVTPIWGQGTLVTVSS VL: DIQMTQSPSALSASVGDRVTFTCRASQDIRNYLGWYQQKPGEAPKLLVYAASSLQSGVPSRFSGSGSGTDFTLTISSLQPEDFATYYCLQDYNYPWTFGQGTKVEIK",
    "binding result": "binds"
  }
]
